Documented pIC50 across a set of compounds
Target: 11β-HSD1 (Homo sapiens, UniProt P28845)
Construct: expressed in transfected cells; host or cells: HEK-293 (transient, Ca2+-phosphate precipitation)
Sequence (P28845 whole entry): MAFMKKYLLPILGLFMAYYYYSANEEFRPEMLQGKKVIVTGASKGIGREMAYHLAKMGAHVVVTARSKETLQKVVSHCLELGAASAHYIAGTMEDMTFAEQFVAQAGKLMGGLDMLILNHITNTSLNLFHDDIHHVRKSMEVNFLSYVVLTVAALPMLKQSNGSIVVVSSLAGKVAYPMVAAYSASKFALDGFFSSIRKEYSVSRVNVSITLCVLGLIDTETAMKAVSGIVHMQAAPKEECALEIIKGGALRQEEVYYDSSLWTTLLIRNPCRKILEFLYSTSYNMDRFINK
Experiment: 11β-HSD1 reductase activity (reduction of cortisone) in lysates of HEK-293 cells expressing recombinant enzyme, competition by 7-oxygenated neurosteroids
Type: biochemical
Details: HEK-293 lysates; 200 nM [3H]-cortisone, 500 µM NADPH; mean±S.D., four experiments
// pIC50 is dimensionless: -log10 of concentration (M)

These solved cases illustrate the format of a correct answer.
{"columns": ["compound", "pIC50"],
 "data": [
  ["C[C@]12CC[C@H](O)CC1=CC(=O)[C@@H]1[C@@H]2CC[C@]2(C)C(=O)CC[C@@H]12 [7-ketodehydroepiandrosterone]", 6.09],
  ["CC(=O)[C@H]1CC[C@H]2[C@@H]3C(=O)C=C4C[C@@H](O)CC[C@]4(C)[C@H]3CC[C@]12C", 6.17],
  ["CC(=O)[C@H]1CC[C@H]2[C@@H]3[C@@H](O)C=C4C[C@@H](O)CC[C@]4(C)[C@H]3CC[C@]12C [7β-hydroxypregnenolone]", 5.62]
]}

Query :: # get_value(readout='pIC50', item= C[C@]12CC[C@H](O)CC1=C[C@@H](O)[C@@H]1[C@@H]2CC[C@]2(C)C(=O)CC[C@@H]12 [7α-hydroxydehydroepiandrosterone] )
Result :: 4.35

Query :: # get_value(readout='pIC50', item= `C[C@]12CC[C@H](O)C[C@@H]1CC(=O)[C@@H]1[C@@H]2CC[C@]2(C)C(=O)CC[C@@H]12` )
Result :: 6.30

Query :: # get_value(readout='pIC50', item= C[C@]12CC[C@H](O)CC1=C[C@H](O)[C@@H]1[C@@H]2CC[C@]2(C)C(=O)CC[C@@H]12 [7β-hydroxydehydroepiandrosterone] )
Result :: 5.11

Each recorded value in this set is attributed to paper PMC1891437.
